System: K-562 leukemia
experimentalDetails: NCI-60 one-dose screen, 48 h
conditionLabel: 10 µM unless noted
The panel holds about 83,000 compounds, 20% with a hit somewhere; the sample as a whole holds those more often. Active and inactive are the calls of the source. Rule for the calls: active = growth percent below 10; inactive = the rest.
Choose the fitting class; nothing outside active, inactive is accepted.

Task item: Status in this test for C=C(C)[C@H]1CC/C(C)=C/CC[C@]2(C)O[C@H]2CC/C(COC(C)=O)=C\C1=O ?
Reply: inactive

Task item: Status in this test for C[C@@H]1CC[C@H]2[C@@H](C)C(O)O[C@@H]3O[C@]4(C)CC[C@@H]1[C@]32OO4 (some centres undefined) ?
Reply: inactive

Task item: Status in this test for CN(C)c1ccc(/C=C\c2ccnc3ccccc23)cc1 ?
Reply: inactive

Task item: Status in this test for COc1cc(C2CC(c3ccc(C)cc3)=NN2C(C)=O)ccc1Oc1ccnc2cc(Cl)ccc12 (centres undefined) ?
Reply: inactive

Task item: Status in this test for C=C1CC[C@@H]2[C@](C)(COC(C)=O)[C@H](OC(C)=O)CC[C@@]2(C)[C@@H]1CC(Nc1ccc(S(=O)(=O)Nc2cc(C)on2)cc1)C1=CCOC1=O (some centres undefined) ?
Reply: active

Task item: Status in this test for Nc1ccc2c3c(cccc13)-c1ccccc1-2 ?
Reply: inactive

Task item: Status in this test for Oc1[nH]c2ccc(Cl)cc2c1/C=c1/ccc2c(c1)N=C(c1ccc(C(F)(F)F)cc1)N=2 ?
Reply: inactive

Task item: Status in this test for CCN1C[C@@H](C)n2c(c(O)c3c(=O)n(Cc4ccc(F)c(Cl)c4)nc(C(=O)NC)c32)C1=O ?
Reply: inactive

Task item: Status in this test for O=C1CC(=O)N(c2ccccc2)O1 ?
Reply: inactive

// data source = PubChem BioAssay (NCI)
